# reported viability, T/C; entries follow
Test system: 323965-272-R-J2-PDC complex spheroid growth, % test/control;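 further: compound exposure lasted 7 days starting three days after spheroid seeding; 100% = DMSO vehicle control wells with viability set relative to vehicle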
Test: Anticancer human tumor 323965-272-R-J2-PDC patient-derived pancreatic carcinoma cell line growth inhibition [Asc]
Details: second compound 0.1 µM; first compound 0.03 µM; hits give low values
The reply should contain only the number, in %.

Record excerpt, results attached:
# Compound, Measured Target, Unit Tag, viability, T/C
rows = [
    ("NC(=O)C(=Cn1cnc(-c2cc(C(F)(F)F)cc(C(F)(F)F)c2)n1)c1cncnc1 + Cc1c(S(C)(=O)=O)c(-c2cc(F)cc(N3CCN(c4ccc(NS(=O)(=O)c5ccc(NC(CCN6CCC(C(=O)OCCCP(=O)(O)O)CC6)CSc6ccccc6)c(S(=O)(=O)C(F)(F)F)c5)cc4)CC3)c2)c(-c2ccc(Cl)cc2)n1C(C)C", "323965-272-R-J2-PDC complex spheroid growth, % test/control", "%", 94.8),
    ("Cc1nc(N2CCC3(CC2)COC(C)C3N)c(CO)nc1Sc1ccnc(N)c1Cl (centres undefined) + CNC(C)C(=O)NC1CN(S(=O)(=O)c2cccc(S(=O)(=O)N3CCC4CCC(C(=O)NC(c5ccccc5)c5ccccc5)N4C(=O)C(NC(=O)C(C)NC)C3)c2)CCC2CCC(C(=O)NC(c3ccccc3)c3ccccc3)N2C1=O", "323965-272-R-J2-PDC complex spheroid growth, % test/control", "%", 96.6),
    ("CCN1C(C(=O)NC23CCC(C(=O)O)(CC2)CC3)C(c2cccc(Cl)c2F)C2(C(=O)Nc3cc(Cl)ccc32)C12CCCCC2 (centres undefined) + Cc1c(S(C)(=O)=O)c(-c2cc(F)cc(N3CCN(c4ccc(NS(=O)(=O)c5ccc(NC(CCN6CCC(C(=O)OCCCP(=O)(O)O)CC6)CSc6ccccc6)c(S(=O)(=O)C(F)(F)F)c5)cc4)CC3)c2)c(-c2ccc(Cl)cc2)n1C(C)C", "323965-272-R-J2-PDC complex spheroid growth, % test/control", "%", 94.2),
]

Moving on to another compound below.
Prompt: Please report the recorded viability, T/C for CCN1C(C(=O)NC23CCC(C(=O)O)(CC2)CC3)C(c2cccc(Cl)c2F)C2(C(=O)Nc3cc(Cl)ccc32)C12CCCCC2 (centres undefined) + CNC(C)C(=O)NC1CN(S(=O)(=O)c2cccc(S(=O)(=O)N3CCC4CCC(C(=O)NC(c5ccccc5)c5ccccc5)N4C(=O)C(NC(=O)C(C)NC)C3)c2)CCC2CCC(C(=O)NC(c3ccccc3)c3ccccc3)N2C1=O .
Completion: 97.7
